# Tested on: Ba/F3 cells KRAS G12C
# measurement_notes: Ba/F3 proliferation assay (KRAS G12C)
# Type: cell-based
# condition_summary: Mus musculus, BaF3, 72 h, AlamarBlue viability
metric: IC50 (nM)

Worked examples follow.
compound	assayed_system	experimental_value
CO[C@@H]1C[C@@H]([C@H](C)Oc2nc(-c3onc4c3CCC[C@@]43CCCc4sc(N)c(C#N)c43)nc3c2n(C)c(=O)n3[C@H]2COC[C@@H](C)C2)N(C)C1 [I-52]	Ba/F3 cells KRAS G12C	8
CO[C@H]1CCN(C)[C@@H]1[C@H](C)Oc1nc(-c2onc3c2CCC[C@@]32CCCc3sc(N)c(C#N)c32)nc2c1n(C)c(=O)n2[C@@H]1CCCOC1 [I-6]	Ba/F3 cells KRAS G12C	4
C[C@H](Oc1nc(-c2onc3c2CCC[C@@]32CCCc3sc(N)c(C#N)c32)nc2c1n(C)c(=O)n2[C@H]1CC2CCC1O2)[C@@H]1CCCN1C (stereo partly drawn) [I-17]	Ba/F3 cells KRAS G12C	37
CO[C@H]1CCN(C)[C@@H]1[C@H](C)Oc1nc(-c2onc3c2CCC[C@@]32CCCc3sc(N)c(C#N)c32)nc2c1n(C)c(=O)n2[C@H]1COC[C@@H](C)C1 [I-51]	Ba/F3 cells KRAS G12C	5
C[C@H](Oc1nc(-c2noc3c2CCC[C@@]32CCCc3sc(N)c(C#N)c32)nc2c1CCO[C@]21CCOC1)[C@@H]1CCCN1C [II-9b]	Ba/F3 cells KRAS G12C	5
Cc1nc2c(O[C@@H](C)[C@@H]3CCCN3C)nc(-c3onc4c3CCC[C@@]43CCCc4sc(N)c(C#N)c43)nc2n1[C@@H]1CCOC1 [I-39]	Ba/F3 cells KRAS G12C	24

(I) C[C@@H]1COC[C@H](n2c(=O)n(C)c3c(O[C@@H](C)[C@@H]4CC[C@H](C)N4C)nc(-c4onc5c4CCC[C@@]54CCCc5sc(N)c(C#N)c54)nc32)C1 [I-53]
(II) C[C@H](Oc1nc(-c2onc3c2CCC[C@@]32CCCc3sc(N)c(C#N)c32)nc2c1[nH]c(=O)n2[C@@H]1CCOC1)[C@@H]1CCCN1C [I-8]
**Query** Sorting ascending by IC50, which comes first: I or II ? Use the label to indicate which entry you chose.
**Result** I
(I: 6 nM, II: 41 nM)

(A) C[C@H](Oc1nc(-c2onc3c2CCC[C@@]32CCCc3sc(N)c(C#N)c32)nc2c1[nH]c(=O)n2[C@@H]1CCCOC1)[C@@H]1CCCN1C [I-13]
(B) C[C@H](Oc1nc(-c2noc3c2CCC[C@@]32CCCc3sc(N)c(C#N)c32)nc2c1COC[C@]21CCOC1)[C@@H]1CCCN1C [II-8]
**Query** Compare A and B by numeric IC50 and name the larger one. Use the label to indicate which entry you chose.
**Result** A
(A: 38 nM, B: 2 nM)

(1) C[C@H](Oc1nc(-c2onc3c2CCC[C@@]32CCCc3sc(N)c(C#N)c32)nc2c1ncn2[C@@H]1CCOC1)[C@@H]1CCCN1C [I-38]
(2) CCn1c(=O)n([C@@H]2CCCOC2)c2nc(-c3onc4c3CCC[C@@]43CCCc4sc(N)c(C#N)c43)nc(O[C@@H](C)[C@@H]3CCCN3C)c21 [I-30]
**Query** Sorting ascending by IC50, which comes first: 1 or 2 ? Use the label to indicate which entry you chose.
**Result** 2

----------
# assayed_system: KRAS (G12C)::SOS1 protein-protein interaction (Homo sapiens (Human), UniProt P01116, C118S/C51S/C80L/G12C)
# Sequence (P01116 other isoform, or with tags, fused parts or gaps G12C/C51S/C80L/C118S): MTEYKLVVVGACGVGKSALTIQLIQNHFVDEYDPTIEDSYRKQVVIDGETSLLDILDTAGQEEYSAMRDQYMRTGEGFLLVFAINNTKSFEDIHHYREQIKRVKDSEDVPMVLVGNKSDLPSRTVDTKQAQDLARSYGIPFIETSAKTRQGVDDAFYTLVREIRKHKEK
# measurement_notes: KRAS::SOS1 AlphaScreen binding assay (KRAS G12C)
# condition_summary: GDP
pIC50: −log10 of the molar value.
metric: pIC50

(1) C[C@H](Oc1nc(-c2onc3c2CCC[C@@]32CCCc3sc(N)c(C#N)c32)nc2c1n(C)c(=O)n2[C@@H]1CCOC1)[C@@H]1[C@@H](F)CCN1C
(2) C[C@H](Oc1nc(-c2onc3c2CCC[C@@]32CCCc3sc(N)c(C#N)c32)nc2c1n(C)c(=O)n2[C@@H]1CCOC1)C12CCCN1CCC2
**Query** Sorting ascending by pIC50, which comes first: 1 or 2 ? Use the label to indicate which entry you chose.
**Result** 2

(a) CO[C@H]1CCN(C)[C@@H]1[C@H](C)Oc1nc(-c2onc3c2CCC[C@@]32CCCc3sc(N)c(C#N)c32)nc2c1n(C)c(=O)n2[C@@H]1CCCOC1
(b) C[C@H](Oc1nc(-c2noc3c2CCC[C@@]32CCCc3sc(N)c(C#N)c32)nc2c1n(C)c(=O)n2[C@@H]1CCOC1)[C@@H]1CCCN1C
**Query** Sorting ascending by pIC50, which comes first: a or b ? Use the label to indicate which entry you chose.
**Result** a
(a: 8.70, b: 9.00)

(1) CO[C@H]1CCN(C)[C@@H]1[C@H](C)Oc1nc(-c2onc3c2CCC[C@@]32CCCc3sc(N)c(C#N)c32)nc2c1n(C)c(=O)n2[C@@H]1CCOC1
(2) C[C@H](Oc1nc(-c2onc3c2CCC[C@@]32CCCc3sc(N)c(C#N)c32)nc2c1n(C)c(=O)n2[C@@H]1CCOC1)[C@@H]1C[C@@H]2C[C@@H]2N1C
**Query** Sorting ascending by pIC50, which comes first: 1 or 2 ? Use the label to indicate which entry you chose.
**Result** 2

----------
# assayed_system: KRAS (G12D)::SOS1 protein-protein interaction (Homo sapiens (Human), UniProt P01116, G12D)
# Sequence (P01116 other isoform, or with tags, fused parts or gaps G12D): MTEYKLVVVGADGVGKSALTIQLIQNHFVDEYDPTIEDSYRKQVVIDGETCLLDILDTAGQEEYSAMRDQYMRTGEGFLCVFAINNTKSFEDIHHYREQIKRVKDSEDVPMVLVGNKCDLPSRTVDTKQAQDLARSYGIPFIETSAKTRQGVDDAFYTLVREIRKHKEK
# measurement_notes: KRAS::SOS1 AlphaScreen binding assay (KRAS G12D)
# condition_summary: GDP
pIC50: −log10 of the molar value.
metric: pIC50

Worked examples follow.
smiles_repr	pIC50
CO[C@@H]1C[C@@H]([C@H](C)Oc2nc(-c3noc4c3CCC[C@@]43CCCc4sc(N)c(C#N)c43)nc3c2COC[C@]32CCOC2)N(C)C1	9.00
C[C@H](Oc1nc(-c2noc3c2CCC[C@@]32CCCc3sc(N)c(C#N)c32)nc2c1CCCO[C@]21CCOC1)[C@@H]1CCCN1C	9.00
CO[C@@H]1C[C@@H]([C@H](C)Oc2nc(-c3noc4c3CCC[C@@]43CCCc4sc(N)c(C#N)c43)nc3c2n(C)c(=O)n3[C@@]23COC[C@@H]2C3)N(C)C1	9.00
CO[C@H]1CCN(C)[C@@H]1[C@H](C)Oc1nc(-c2noc3c2CCC[C@@]32CCCc3sc(N)c(C#N)c32)nc2c1n(C)c(=O)n2[C@@H]1CCCOC1	8.70
CO[C@H]1CCN(C)[C@@H]1[C@H](C)Oc1nc(-c2noc3c2CCC[C@@]32CCCc3sc(N)c(C#N)c32)nc2c1CN(C1COC1)C[C@]21CCOC1	9.00

(P) C[C@H](Oc1nc(-c2noc3c2CCC[C@@]32CCCc3sc(N)c(C#N)c32)nc2c1n(C)c(=O)n2[C@@H]1CCOC1)[C@@H]1CCCN1C
(Q) C[C@H](Oc1nc(-c2noc3c2CCC[C@@]32CCCc3sc(N)c(C#N)c32)nc2c1CN(c1ncccn1)[C@]21CCOC1)[C@@H]1CCCN1C
(R) CCn1c(=O)n([C@@H]2CCCOC2)c2nc(-c3onc4c3CCC[C@@]43CCCc4sc(N)c(C#N)c43)nc(OCC34CCCN3CCC4)c21
**Query** Please list the entries, largest pIC50 first. Submit the labels in the order that the ranking request calls for.
**Result** P, Q, R
(P: 9.00, Q: 8.70, R: 7.66)

----------
# Tested on: Ba/F3 cells KRAS G12C
# measurement_notes: Ba/F3 proliferation assay (KRAS G12C)
# Type: cell-based
# condition_summary: Mus musculus, BaF3, 72 h, AlamarBlue viability
pIC50: −log10 of the molar value.
metric: pIC50

molecule	pIC50
Cc1nn([C@@H]2CCOC2)c2nc(-c3onc4c3CCC[C@@]43CCCc4sc(N)c(C#N)c43)nc(O[C@@H](C)[C@@H]3CCCN3C)c12 [I-42]	7.77
C[C@H](Oc1nc(-c2onc3c2CCC[C@@]32CCCc3sc(N)c(C#N)c32)nc2c1n(C)c(=O)n2C12COC(C1)C2)[C@@H]1CCCN1C [I-15]	7.80
CCn1c(=O)n([C@@H]2CCCOC2)c2nc(-c3onc4c3CCC[C@@]43CCCc4sc(N)c(C#N)c43)nc(OC[C@@]34CCCN3C[C@H](F)C4)c21 [I-33]	5.80
C[C@H](Oc1nc(-c2noc3c2CCC[C@@]32CCCc3sc(N)c(C#N)c32)nc2c1CN(C1COC1)C[C@]21CCOC1)[C@@H]1CC[C@H](C)N1C [II-17]	8.52

(P) C[C@H](Oc1nc(-c2onc3c2CCC[C@@]32CCCc3sc(N)c(C#N)c32)nc2c1n(C)c(=O)n2[C@@H]1CCOC1)[C@@H]1C[C@@H](F)CN1C [I-22]
(Q) CO[C@H]1CCN(C)[C@@H]1[C@H](C)Oc1nc(-c2noc3c2CCC[C@@]32CCCc3sc(N)c(C#N)c32)nc2c1n(C)c(=O)n2[C@@H]1CCOC1 [II-1]
**Query** Sorting ascending by pIC50, which comes first: P or Q ? Use the label to indicate which entry you chose.
**Result** P
